B1: COX4I1 (parent)
chain: VAHVKHLSASQKALKEKEKASWSS

Variants of: B1
experiment.notes: protein stability index of a GFP-peptide fusion (GPS, HEK-293T) (PSI 1-6); higher = more stable;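 further: lentivirally expressed fusions sorted by FACS into six bins by GFP to DsRed ratio, PSI derived from sequencing read proportions per bin multiplied by bin number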
experimental.conditions: c terminus: a fixed tail appended
Measured protein stability index, listed per entry.
outcome.measure: protein stability index

monomer.sequence	outcome.measure	meas.value
NAHVKHLSASQKALKEKEKASWSS [V1N]	protein stability index	3.96
VAHVKHLSASQKALKVKEKASWSS [E16V]	protein stability index	2.03
VHHVKHLSASQKALKEKEKASWSS [A2H]	protein stability index	3.72
VAHVKHLSASQKAMKEKEKASWSS [L14M]	protein stability index	3.62
VAHVKHLSRSQKALKEKEKASWSS [A9R]	protein stability index	3.7
VAHVKHLSASQKANKEKEKASWSS [L14N]	protein stability index	3.98
VAHVKHLSASQKALKEKEKASWHS [S23H]	protein stability index	3.68
VAHIKHLSASQKALKEKEKASWSS [V4I]	protein stability index	3.03
VAHVKHLSASQKDLKEKEKASWSS [A13D]	protein stability index	3.82
VNHVKHLSASQKALKEKEKASWSS [A2N]	protein stability index	2.81
VAHVKHLSAYQKALKEKEKASWSS [S10Y]	protein stability index	2.28
VAHVKHLSMSQKALKEKEKASWSS [A9M]	protein stability index	3.03
EAHVKHLSASQKALKEKEKASWSS [V1E]	protein stability index	3.79
VAHVKALSASQKALKEKEKASWSS [H6A]	protein stability index	3.24
VAHVKHLSASQKALKEKEVASWSS [K19V]	protein stability index	3.03

The reported numbers originate from the supplement of paper PMC10567573.
